These entries and their values trace back to patent US20220048967A1.

The binders listed here are annotated with their hGLP1R GTPgS Rel EC50.
# measurementTarget: human GLP-1 receptor (human, UniProt P43220 24-463)
# protocolText: cell-based or functional assay
Just the number in nM, nothing appended.

Task: Would you kindly share the measured hGLP1R GTPgS Rel EC50 for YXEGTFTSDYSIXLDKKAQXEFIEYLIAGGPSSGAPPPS (Aib2, αMeL13, K17 conjugated to (2-[2-(2-Amino-ethoxy)-ethoxy]-acetyl)2-(γ-Glu)-CO-(CH2)18-CO2H, Aib20, C-terminal amide (NH2)) [Example 289] ?
Result: 0.404
